molecular target: Human Cl Esterase (Homo sapiens); assay: Inhibitory effect on ester-hydrolyzing activity of human Cl esterase (ATEe substrate); format: biochemical; details: read-out: Cl-esterase percent inhibition
Answer -1 if inhibition at 1000 µM is under 30%, and 1 if it is 30% or more.

Does the molecule CN(C)C(=O)COC(=O)c1ccc(OC(=O)C2CCCc3c(N)cccc32)cc1 (stereo not drawn) have recorded inhibition at 1000 µM that is 30% or more? -1

For this molecule, is measured inhibition at 1000 µM 30% or higher? CN(C)C(=O)COC(=O)c1ccc(OC(=O)C2CCCc3ccc(N)cc32)cc1 (stereo not drawn) 1

Check this molecule for inhibition at 1000 µM at or above 30%: COC(=O)c1ccc(OC(=O)C2CCCc3ccc(N)cc32)cc1 (stereo not drawn) -1

Is reported inhibition at 1000 µM greater than or equal to 30% here: COc1ccc(OC(=O)C2CCCc3ccc(NC(=N)N)cc32)cc1.Cl (stereo not drawn) [Compound 138, hydrochloride] 1

Is it the case that N#Cc1ccc(OC(=O)C2CCCc3c(NC(=N)N)cccc32)cc1 (stereo not drawn) has inhibition at 1000 µM reaching or exceeding 30%? -1

I'd appreciate it if you could say whether CCOC(=O)c1ccc(OC(=O)C2CCCc3c(N)cccc32)cc1.Cl (stereo not drawn) [Compound 66, hydrochloride] has inhibition at 1000 µM at least equal to 30%. -1

###

molecular target: Human Plasmin (Homo sapiens); experiment: Inhibitory effect on ester-hydrolyzing activity of human plasmin (TAMe substrate); assay type: biochemical; conditions: at 10^-3 M; in vitro, TAMe; read-out: Plasmin percent inhibition
Sequence (P00747 581-810 limits assumed): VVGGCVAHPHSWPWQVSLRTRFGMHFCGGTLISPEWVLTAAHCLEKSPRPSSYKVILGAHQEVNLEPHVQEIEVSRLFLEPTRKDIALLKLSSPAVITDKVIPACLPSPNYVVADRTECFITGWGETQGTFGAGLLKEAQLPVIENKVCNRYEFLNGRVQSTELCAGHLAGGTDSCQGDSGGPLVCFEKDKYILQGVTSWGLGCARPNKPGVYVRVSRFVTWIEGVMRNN
Sequence (P00747 97-580 partner limits assumed): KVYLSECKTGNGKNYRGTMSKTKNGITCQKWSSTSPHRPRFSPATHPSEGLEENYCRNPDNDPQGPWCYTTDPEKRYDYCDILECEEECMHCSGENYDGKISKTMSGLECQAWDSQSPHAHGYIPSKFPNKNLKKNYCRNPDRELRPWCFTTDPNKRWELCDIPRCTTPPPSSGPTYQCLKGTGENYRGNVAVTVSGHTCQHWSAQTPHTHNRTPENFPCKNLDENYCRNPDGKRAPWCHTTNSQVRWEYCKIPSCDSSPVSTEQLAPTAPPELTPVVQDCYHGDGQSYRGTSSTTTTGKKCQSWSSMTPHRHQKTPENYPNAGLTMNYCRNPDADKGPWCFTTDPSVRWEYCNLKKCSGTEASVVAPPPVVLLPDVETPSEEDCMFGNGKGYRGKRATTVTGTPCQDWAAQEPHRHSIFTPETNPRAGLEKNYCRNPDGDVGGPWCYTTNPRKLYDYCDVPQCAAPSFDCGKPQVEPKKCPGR
The entries below are paired with their reported inhibition at 1000 µM.
Give the value, in units of %, as a plain number.

> print(dat)
                                   molecule               target.of.assay  obs.value
1  CCOC(=O)c1ccc(OC(=O)C2CCCc3ccc(N)cc32)cc1 (stereo not drawn)  Human Plasmin (Homo sapiens)       16.6
2  CCOC(=O)COC(=O)c1ccc(OC(=O)C2CCCc3ccc(N)cc32)cc1 (stereo not drawn)  Human Plasmin (Homo sapiens)       24.6
3  N=C(N)Nc1cccc2c1CCCC2C(=O)Oc1cccc2c1CCCC2 (stereo not drawn)  Human Plasmin (Homo sapiens)       46.1
4  N#Cc1ccc(OC(=O)C2CCCc3c(NC(=N)N)cccc32)cc1 (stereo not drawn)  Human Plasmin (Homo sapiens)         49
5  CCOC(=O)COC(=O)c1ccc(OC(=O)C2CCCc3c(N)cccc32)cc1 (stereo not drawn)  Human Plasmin (Homo sapiens)       26.2

Dear colleague, I am looking for the recorded inhibition at 1000 µM of the following molecule: N=C(N)Nc1ccc2c(c1)C(C(=O)Oc1cccc3ccccc13)CCC2 (stereo not drawn) 27.6

Dear colleague, I am looking for the recorded inhibition at 1000 µM of the following molecule: COc1ccc(OC(=O)C2CCCc3ccc(NC(=N)N)cc32)cc1.Cl (stereo not drawn) [Compound 138, hydrochloride] 17

Record request: inhibition at 1000 µM value, item COC(=O)c1ccc(OC(=O)C2CCCc3ccc(N)cc32)cc1 (stereo not drawn) 40.7

What does the record list as inhibition at 1000 µM for CN(C)C(=O)COC(=O)CCc1ccc(OC(=O)C2CCCc3ccc(N)cc32)cc1 (stereo not drawn) ? 21.5

What value of inhibition at 1000 µM has been reported for the following molecule? CCOC(=O)c1ccc(OC(=O)C2CCCc3c(N)cccc32)cc1.Cl (stereo not drawn) [Compound 66, hydrochloride] 4.4

Quick one: inhibition at 1000 µM of COC(=O)c1ccc(OC(=O)C2CCCc3c(N)cccc32)cc1 (stereo not drawn) ? 35

###

target: Trypsin (Bos taurus); test: Inhibitory effect on ester-hydrolyzing activity of trypsin (TAMe substrate); type: biochemical; details: in vitro, TAMe, pH 8.6, 37° C.; Table 4 bracketed value; read-out: Trypsin ID50
Sequence (P00760 24-246): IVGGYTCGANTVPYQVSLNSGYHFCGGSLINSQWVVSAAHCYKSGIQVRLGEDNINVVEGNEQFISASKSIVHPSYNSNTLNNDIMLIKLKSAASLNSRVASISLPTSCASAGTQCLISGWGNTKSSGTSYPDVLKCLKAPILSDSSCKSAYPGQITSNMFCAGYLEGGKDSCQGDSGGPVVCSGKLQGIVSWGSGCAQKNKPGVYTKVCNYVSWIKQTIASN
Reported log10 IC50 values for the following compounds.
All values: log10 IC50 [µM].

> print(dat)
                                   compound  obs.value
1  CN(C)C(=O)COC(=O)Cc1ccc(OC(=O)C2CCCc3ccc(N)cc32)cc1 (stereo not shown)       2.04
2  COc1ccc(OC(=O)C2CCCc3ccc(NC(=N)N)cc32)cc1.Cl (stereo not shown) [Compound 138, hydrochloride]       3.00
3  CCOC(=O)COC(=O)c1ccc(OC(=O)C2CCCc3c(N)cccc32)cc1 (stereo not shown)       1.72

What does the data say about its log10 IC50? Entry: N=C(N)Nc1ccc2c(c1)C(C(=O)Oc1ccc(Cl)cc1)CCC2 (stereo not shown) 1.89

Need log10 IC50 of N=C(N)Nc1cccc2c1CCCC2C(=O)Oc1cccc2ccccc12 (stereo not shown) , thanks. 2.92

###

This section lists pIC50 readings for Human Plasmin (Homo sapiens).
Give only the number. pIC50 is defined as minus log10 of concentration in molar units.

Examples with their reported pIC50 follow.
> print(dat)
                                   compound               target.of.assay  obs.value
1  CCCCOc1ccc(OC(=O)C2CCCc3ccc(NC(=N)N)cc32)cc1 (centres unmarked) [Compound 142]  Human Plasmin (Homo sapiens)       3.44
2  NC(=O)COC(=O)c1ccc(OC(=O)C2CCCc3c(N)cccc32)cc1 (centres unmarked) [Compound 71]  Human Plasmin (Homo sapiens)       4.27
3  COC(=O)c1ccc(OC(=O)C2CCCc3ccc(NC(=N)N)cc32)cc1 (centres unmarked) [Compound 144]  Human Plasmin (Homo sapiens)       4.35

Item CCOC(=O)c1ccc(OC(=O)C2CCCc3ccc(NC(=N)N)cc32)cc1 (centres unmarked) [Compound 148] with Human Plasmin (Homo sapiens) - pIC50? 3.85

Query the reported pIC50 for Human Plasmin (Homo sapiens); item: N#Cc1ccc(OC(=O)C2CCCc3ccc(NC(=N)N)cc32)cc1 (centres unmarked) [Compound 163] 4.14

API: value(readout= pIC50, system= Human Plasmin (Homo sapiens), query= N=C(N)Nc1cccc2c1CCCC2C(=O)Oc1ccc(C(=O)OCC(N)=O)cc1 (centres unmarked) [Compound 126] ) 3.24

Human Plasmin (Homo sapiens) / pIC50 / CN(C)C(=O)COC(=O)Cc1ccc(OC(=O)C2CCCc3ccc(N)cc32)cc1 (centres unmarked) [Compound 101] : value? 4.32

GET /values?readout=pIC50&system=Human Plasmin (Homo sapiens)&item= NC(=O)COC(=O)c1ccc(OC(=O)C2CCCc3ccc(N)cc32)cc1 (centres unmarked) [Compound 99] 3.52

###

Reported inhibition at 1000 µM values for a set of compounds
target: Bovine Thrombin (Bos taurus); experiment: Inhibitory effect on ester-hydrolyzing activity of bovine thrombin (TAMe substrate); type: biochemical; settings: at 10^-3 M; in vitro, TAMe; read-out: Thrombin percent inhibition

Past entries and their recorded results:
> print(dat)
                                   compound  obs.value
1  COC(=O)c1cccc(OC(=O)C2CCCc3c(N)cccc32)c1 (centres unmarked)      20.3%
2  Nc1ccc2c(c1)C(C(=O)Oc1ccc(OC(=O)C3CCCc4ccc(N)cc43)cc1)CCC2 (centres unmarked)        35%
3  N=C(N)Nc1cccc2c1CCCC2C(=O)Oc1ccc(C(=O)OCc2ccccc2)cc1 (centres unmarked)        45%
4  N=C(N)Nc1cccc2c1CCCC2C(=O)Oc1cccc2ccccc12 (centres unmarked)     < 3.2%

Lab note: next compound to report on.
What value of measured inhibition at 1000 µM is listed for N=C(N)Nc1ccc2c(c1)C(C(=O)Oc1cccc3c1CCCC3)CCC2 (centres unmarked) ? < 3.2%

###

Molecular target: Human Cl Esterase (Homo sapiens)
Sequence (P09871 438-688 limits assumed): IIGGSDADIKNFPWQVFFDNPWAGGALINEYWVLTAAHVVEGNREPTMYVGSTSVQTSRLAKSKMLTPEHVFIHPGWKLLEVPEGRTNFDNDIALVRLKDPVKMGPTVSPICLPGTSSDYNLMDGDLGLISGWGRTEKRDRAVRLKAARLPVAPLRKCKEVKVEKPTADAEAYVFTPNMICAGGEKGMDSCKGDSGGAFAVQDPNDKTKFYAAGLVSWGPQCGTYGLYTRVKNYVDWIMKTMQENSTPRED
Sequence (P09871 16-437 partner limits assumed): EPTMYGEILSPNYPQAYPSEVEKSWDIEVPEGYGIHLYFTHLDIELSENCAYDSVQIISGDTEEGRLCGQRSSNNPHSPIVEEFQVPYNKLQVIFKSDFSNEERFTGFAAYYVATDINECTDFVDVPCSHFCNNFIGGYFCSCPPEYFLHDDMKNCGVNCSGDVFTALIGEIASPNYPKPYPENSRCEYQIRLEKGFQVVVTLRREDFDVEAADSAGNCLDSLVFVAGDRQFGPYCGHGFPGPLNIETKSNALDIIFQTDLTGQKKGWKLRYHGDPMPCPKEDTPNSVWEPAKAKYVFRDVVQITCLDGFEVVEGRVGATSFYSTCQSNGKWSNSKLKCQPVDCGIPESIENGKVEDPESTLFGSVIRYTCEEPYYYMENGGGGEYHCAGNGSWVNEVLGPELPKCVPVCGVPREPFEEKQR
Test: Inhibitory effect on ester-hydrolyzing activity of human Cl esterase (ATEe substrate)
Type: biochemical
Conditions: read-out: Cl-esterase percent inhibition
Assign class by inhibition at 1000 µM: not lower than 30% means YES; lower than 30% means NO.

Consider the following illustrative entries.
> print(dat)
                                   compound  label.value
1  COC(=O)c1ccc(OC(=O)C2CCCc3c(N)cccc32)cc1 (stereo not drawn) [Compound 63]           NO
2  COC(=O)c1cccc(OC(=O)C2CCCc3ccc(N)cc32)c1 (stereo not drawn) [Compound 92]           NO
3  CN(C)C(=O)COC(=O)Cc1ccc(OC(=O)C2CCCc3ccc(N)cc32)cc1 (stereo not drawn) [Compound 101]          YES

Pending compound:
Could you please find out whether CN(C)C(=O)COC(=O)CCc1ccc(OC(=O)C2CCCc3ccc(N)cc32)cc1 (stereo not drawn) [Compound 103] has inhibition at 1000 µM that meets 30% or exceeds it? NO

Source of measurements: patent US4214093A
